# Tested on: NCI-H460
# TEST PROTOCOL: NCI tumour cell line growth inhibition, 48 h
Active and inactive are the calls of the source. Rule as the data show it: active = GI50 up to about 1.1 µM and inactive = higher. Where a SMILES comes first, the peptide text is derived from it. [ ]: non-standard residue; d: D form. The star is where a group is joined. ξ: configuration not given here. ξNMe2Val = CC(C)C(C(=O)*)N(C)C; NMeV = CN[CH](C(=O)O)C(C)C; NHBn = c1ccc(CN*)cc1
Assign a class; possible classes are true = active, false = inactive

Example results:
>  <COMPOUND>
COc1ccc(/C(=N\NC(=S)NN)C(c2ccc(OC)cc2)C2C(=O)Oc3ccccc32)cc1 (centres undefined)

>  <EXPERIMENTAL TARGET>
NCI-H460

>  <GROUP>
false

$$$$
>  <COMPOUND>
COc1c(O)c2ccccc2c2cc(O)ccc12

>  <EXPERIMENTAL TARGET>
NCI-H460

>  <GROUP>
false

$$$$
>  <COMPOUND>
COc1cc(Br)c(/C=N\c2cccc3ccc(OS(=O)(=O)c4cccc([N+](=O)[O-])c4)cc23)cc1OC

>  <EXPERIMENTAL TARGET>
NCI-H460

>  <GROUP>
false

$$$$
>  <COMPOUND>
CC(C)C(NC(=O)C(C(C)C)N(C)C)C(=O)N(C)C(C(=O)N1CCCC1C(=O)N1CCCC1C(=O)NCc1ccccc1)C(C)C (centres undefined) (ξNMe2Val-V[NMeV]PP-NHBn; configuration not given here)

>  <EXPERIMENTAL TARGET>
NCI-H460

>  <GROUP>
true

$$$$
>  <COMPOUND>
CCOC(=O)c1ccc2nc(NC(=O)COC(=O)CSc3nc(C)cc(C)n3)sc2c1

>  <EXPERIMENTAL TARGET>
NCI-H460

>  <GROUP>
false

$$$$

Hi, do you know how `CC/C=C/C(=O)CC(O)(C(F)(F)F)C(F)(F)F` came out in this test? false

Hi, do you know how `O=C(O)c1cc(C(=O)O)nc(C(=O)O)c1` came out in this test? false

Hi, do you know how Sc1ncnc2c1ncn2C1CCCO1 (centres undefined) came out in this test? false

Hi, do you know how CCC1CN2CCc3cc(OC)c(OC)cc3C2CC1CC1c2cc(OC)c(OC)cc2CCN1C(=O)C1CCCN1 (centres undefined) came out in this test? false
